molecular target: von Hippel-Lindau disease tumor suppressor/Bromodomain-containing protein 9 (Homo sapiens) (UniProt Q9H8M2+P40337); test: PROTAC activity at VHL/BRD9 in human Ri-1 cells assessed as remaining BRD9 protein level at 1 uM incubated for 2 hrs by Western blot analysis relative to control; type: cell-based
Sequence (P40337 whole entry, looked up): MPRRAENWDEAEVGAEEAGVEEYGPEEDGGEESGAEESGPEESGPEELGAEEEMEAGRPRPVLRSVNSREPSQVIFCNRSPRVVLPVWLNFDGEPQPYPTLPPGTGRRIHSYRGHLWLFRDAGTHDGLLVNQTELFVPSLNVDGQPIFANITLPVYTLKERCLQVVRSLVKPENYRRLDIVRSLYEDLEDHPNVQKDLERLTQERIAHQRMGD
Sequence (Q9H8M2 whole entry, looked up): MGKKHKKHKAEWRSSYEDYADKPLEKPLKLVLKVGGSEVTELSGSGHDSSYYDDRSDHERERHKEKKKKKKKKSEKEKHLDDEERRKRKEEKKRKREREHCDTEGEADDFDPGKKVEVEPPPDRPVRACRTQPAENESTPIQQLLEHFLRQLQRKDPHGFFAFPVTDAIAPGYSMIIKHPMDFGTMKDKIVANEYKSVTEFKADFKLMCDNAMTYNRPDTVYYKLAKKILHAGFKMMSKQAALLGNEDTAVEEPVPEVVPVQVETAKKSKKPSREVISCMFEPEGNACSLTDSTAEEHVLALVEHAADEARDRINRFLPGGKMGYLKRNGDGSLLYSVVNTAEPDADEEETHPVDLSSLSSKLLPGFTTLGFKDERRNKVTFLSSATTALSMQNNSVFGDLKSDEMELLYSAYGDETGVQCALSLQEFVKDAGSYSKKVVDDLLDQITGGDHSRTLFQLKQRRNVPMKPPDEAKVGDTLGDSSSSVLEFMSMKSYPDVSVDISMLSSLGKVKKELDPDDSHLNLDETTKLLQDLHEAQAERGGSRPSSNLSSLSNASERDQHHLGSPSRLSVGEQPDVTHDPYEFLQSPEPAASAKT
MEASURED PROPERTY: Activity (%)

Reference set (5 entries):
query: Entry COc1cc(-c2cn(C)c(=O)c3cnccc23)cc(OC)c1CN1CC(NC(=O)CCCCOc2cc(-c3scnc3C)ccc2CNC(=O)[C@@H]2C[C@@H](O)CN2C(=O)[C@@H](NC(=O)C2(F)CC2)C(C)(C)C)C1 : reported Activity = ?
result: 68

query: What does the record list as Activity for COc1cc(-c2cn(C)c(=O)c3cnccc23)c(OC)cc1CN1CCN(CCCCCOc2cc(-c3scnc3C)ccc2CNC(=O)[C@@H]2C[C@@H](O)CN2C(=O)[C@@H](NC(=O)C2(F)CC2)C(C)(C)C)CC1 ?
result: 65

query: Return reported Activity; argument: COc1cc(-c2cn(C)c(=O)c3cnccc23)cc(OC)c1CN1CCN(CCCCCOc2cc(-c3scnc3C)ccc2CNC(=O)[C@@H]2C[C@@H](O)CN2C(=O)[C@@H](NC(=O)C2(F)CC2)C(C)(C)C)CC1
result: 52

query: Which value of Activity has been reported for COc1cc(-c2cn(C)c(=O)c3cnccc23)c(OC)cc1CN1CCN(CCOCCOc2cc(-c3scnc3C)ccc2CNC(=O)[C@@H]2C[C@@H](O)CN2C(=O)[C@@H](NC(=O)C2(F)CC2)C(C)(C)C)CC1 in the records?
result: 94

query: Need Activity, item COc1cc(-c2cn(C)c(=O)c3cnccc23)cc(OC)c1CN1CCN(CCCCCOCCOc2cc(-c3scnc3C)ccc2CNC(=O)[C@@H]2C[C@@H](O)CN2C(=O)[C@@H](NC(=O)C2(F)CC2)C(C)(C)C)CC1
result: 69

[A] COc1cc(-c2cn(C)c(=O)c3cnccc23)c(OC)cc1CN1CCN(CCCCCOCCOc2cc(-c3scnc3C)ccc2CNC(=O)[C@@H]2C[C@@H](O)CN2C(=O)[C@@H](NC(=O)C2(F)CC2)C(C)(C)C)CC1
[B] COc1cc(-c2cn(C)c(=O)c3cnccc23)cc(OC)c1CN1CCN(CCOCCOc2cc(-c3scnc3C)ccc2CNC(=O)[C@@H]2C[C@@H](O)CN2C(=O)[C@@H](NC(=O)C2(F)CC2)C(C)(C)C)CC1
query: Endpoint returns whichever of A and B has the numerically higher Activity. Write down the label of the entry you select.
result: A

Ref: ChEMBL document CHEMBL5260840
